tested on: 677734-321-R-J1-PDC complex spheroid viability; experiment: Anticancer human tumor 677734-321-R-J1-PDC patient-derived soft tissue sarcoma cell line growth inhibition [POLQ]; conditions: second compound 0.0316 µM; first compound 0.316 µM; active compounds read low
value type: viability, T/C (%)

compound="COc1ccc([C@@H](O)c2cc(-c3ncnc4cc(N5CCOCC5)ccc34)c(F)cc2Cl)nn1 + Cc1cccc(N(C)C(=O)C2C(O)CCN2c2nc(C)cc(C(F)(F)F)c2C#N)c1" value_type="viability, T/C" readout_number=96.2
compound="O=c1[nH]cc(F)c(=O)[nH]1 + Nc1ccc(C#CCN(C(=O)Cc2ncc(C(F)(F)F)cc2C(F)(F)F)c2ccc(F)cc2)nn1" value_type="viability, T/C" readout_number=93.8
compound="O=c1[nH]cc(F)c(=O)[nH]1 + Cc1cccc(N(C)C(=O)C2C(O)CCN2c2nc(C)cc(C(F)(F)F)c2C#N)c1" value_type="viability, T/C" readout_number=111
compound="CCc1cc2c(N3CCc4c(cc(Cn5ccnc5)cc4-c4cn(C)nc4C(F)(F)F)C3=O)ccnc2c(OC)n1 + COC1C(OC(N)=O)C(O)C(Oc2ccc3c(O)c(NC(=O)c4ccc(O)c(CC=C(C)C)c4)c(=O)oc3c2C)OC1(C)C" value_type="viability, T/C" readout_number=105
compound="CCCS(=O)(=O)Nc1ccc(F)c(C(=O)c2c[nH]c3ncc(-c4ccc(Cl)cc4)cc23)c1F + Nc1ccc(C#CCN(C(=O)Cc2ncc(C(F)(F)F)cc2C(F)(F)F)c2ccc(F)cc2)nn1" value_type="viability, T/C" readout_number=97.2
compound="COc1cccc(OCCCN)c1-c1cc(Nc2cnc(C#N)cn2)n[nH]1 + Nc1ccc(C#CCN(C(=O)Cc2ncc(C(F)(F)F)cc2C(F)(F)F)c2ccc(F)cc2)nn1" value_type="viability, T/C" readout_number=7.28

---

tested on: 677734-321-R-J1-PDC complex spheroid viability; assay: Anticancer human tumor 677734-321-R-J1-PDC cell line growth inhibition [POLQ]; conditions: second compound 1 µM; first compound 0.1 µM; active compounds read low;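 further: spheroids exposed to compounds for one week; 100% = vehicle DMSO treated spheroids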
Please note: viability, T/C exactly at 80% is Criterion not met. Only values below 80% get Criterion met.

compound="COc1cc(C2c3cc4c(cc3C(OC3OC5COC(C)OC5C(O)C3O)C3COC(=O)C23)OCO4)cc(OC)c1O (stereo not given) + Nc1ccc(C#CCN(C(=O)Cc2ncc(C(F)(F)F)cc2C(F)(F)F)c2ccc(F)cc2)nn1" category="Criterion met"
compound="COc1ccc([C@@H](O)c2cc(-c3ncnc4cc(N5CCOCC5)ccc34)c(F)cc2Cl)nn1 + Cc1cccc(N(C)C(=O)C2C(O)CCN2c2nc(C)cc(C(F)(F)F)c2C#N)c1" category="Criterion not met"
compound="CC(C)n1c(=O)n(C)c2cnc3cc(F)c(-c4ccc(OCCCN5CCCCC5)nc4)cc3c21 + Nc1ccc(C#CCN(C(=O)Cc2ncc(C(F)(F)F)cc2C(F)(F)F)c2ccc(F)cc2)nn1" category="Criterion not met"
compound="CCc1c2c(nc3ccc(O)cc13)-c1cc3c(c(=O)n1C2)COC(=O)[C@]3(O)CC + Nc1ccc(C#CCN(C(=O)Cc2ncc(C(F)(F)F)cc2C(F)(F)F)c2ccc(F)cc2)nn1" category="Criterion met"
compound="COc1cc2cc(C(=O)CCC(=O)O)sc2cc1OC + Cc1cccc(N(C)C(=O)C2C(O)CCN2c2nc(C)cc(C(F)(F)F)c2C#N)c1" category="Criterion met"

---

Here, each record is paired with measured viability, T/C data.
System: 677734-321-R-J1-PDC complex spheroid viability
Assay: Anticancer human tumor 677734-321-R-J1-PDC cell line growth inhibition [POLQ];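 further: spheroids exposed to compounds for one week; 100% = vehicle DMSO treated spheroids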
Details: second compound 0.316 µM; first compound 0.0316 µM; active compounds read low
Method: Multicellular complex tumor spheroid response to Polymerase (POL) inhibitors (novobiocin, ART-558, RP6685) in combination with a variety of drugs and investigational agents in selected tumor cell lines The POL inhibitors (novobiocin, ART-558, and RP6685) were evaluated both individually and in combination with standard of care and investigational anticancer small molecules within a complex spheroid model of solid tumors. . […]
value type: viability, T/C (%)

compound="CCc1c2c(nc3ccc(O)cc13)-c1cc3c(c(=O)n1C2)COC(=O)[C@]3(O)CC + COC1C(OC(N)=O)C(O)C(Oc2ccc3c(O)c(NC(=O)c4ccc(O)c(CC=C(C)C)c4)c(=O)oc3c2C)OC1(C)C" readout_number=4.66
compound="C#Cc1c(F)ccc2cc(O)cc(-c3ncc4c(N5CC6CCC(C5)N6)nc(OCC56CCCN5CC(F)C6)nc4c3F)c12 (stereo not given) + COC1C(OC(N)=O)C(O)C(Oc2ccc3c(O)c(NC(=O)c4ccc(O)c(CC=C(C)C)c4)c(=O)oc3c2C)OC1(C)C" readout_number=108
compound="CC1COCCN1c1cc(C2(O)CC3CCC(C2)O3)c2cnn(-c3ccn[nH]3)c2n1 (stereo not given) + COC1C(OC(N)=O)C(O)C(Oc2ccc3c(O)c(NC(=O)c4ccc(O)c(CC=C(C)C)c4)c(=O)oc3c2C)OC1(C)C" readout_number=80.2
compound="CCc1cc2c(N3CCc4c(cc(Cn5ccnc5)cc4-c4cn(C)nc4C(F)(F)F)C3=O)cc(C)nc2c(OC)n1 + Nc1ccc(C#CCN(C(=O)Cc2ncc(C(F)(F)F)cc2C(F)(F)F)c2ccc(F)cc2)nn1" readout_number=104
compound="CCc1cc2c(N3CCc4c(cc(Cn5ccnc5)cc4-c4cn(C)nc4C(F)(F)F)C3=O)cc(C)nc2c(OC)n1 + Cc1cccc(N(C)C(=O)C2C(O)CCN2c2nc(C)cc(C(F)(F)F)c2C#N)c1" readout_number=92.4

---

Listed below: viability, T/C values for each entry.
test system: 677734-321-R-J1-PDC complex spheroid viability; test: Anticancer human tumor 677734-321-R-J1-PDC cell line growth inhibition [POLQ]; conditions: second compound 0.0316 µM; first compound 3.16 µM; active compounds read low;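 further: spheroids exposed to compounds for one week; 100% = vehicle DMSO treated spheroids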
value type: viability, T/C (%)

molecule="CC1COCCN1c1cc(-c2ccnn2C)c2ccnc(-c3ccn[nH]3)c2n1 (stereo not given) + COC1C(OC(N)=O)C(O)C(Oc2ccc3c(O)c(NC(=O)c4ccc(O)c(CC=C(C)C)c4)c(=O)oc3c2C)OC1(C)C" value_units=% readout_number=6.88
molecule="C#Cc1c(F)ccc2cc(O)cc(-c3ncc4c(N5CC6CCC(C5)N6)nc(OCC56CCCN5CC(F)C6)nc4c3F)c12 (stereo not given) + COC1C(OC(N)=O)C(O)C(Oc2ccc3c(O)c(NC(=O)c4ccc(O)c(CC=C(C)C)c4)c(=O)oc3c2C)OC1(C)C" value_units=% readout_number=111
molecule="O=c1[nH]cc(F)c(=O)[nH]1 + COC1C(OC(N)=O)C(O)C(Oc2ccc3c(O)c(NC(=O)c4ccc(O)c(CC=C(C)C)c4)c(=O)oc3c2C)OC1(C)C" value_units=% readout_number=44.4
molecule="COc1cccc2c1C(=O)c1c(O)c3c(c(O)c1C2=O)CC(O)(C(=O)CO)CC3OC1CC(N)C(O)C(C)O1 (stereo not given) + COC1C(OC(N)=O)C(O)C(Oc2ccc3c(O)c(NC(=O)c4ccc(O)c(CC=C(C)C)c4)c(=O)oc3c2C)OC1(C)C" value_units=% readout_number=2.77
molecule="O=C(Nc1ccc(O)c(NS(=O)(=O)c2ccc(F)cc2)c1)c1ccc(-c2ccccc2)cc1 + COC1C(OC(N)=O)C(O)C(Oc2ccc3c(O)c(NC(=O)c4ccc(O)c(CC=C(C)C)c4)c(=O)oc3c2C)OC1(C)C" value_units=% readout_number=85.9
molecule="CCc1cc2c(N3CCc4c(cc(Cn5ccnc5)cc4-c4cn(C)nc4C(F)(F)F)C3=O)ccnc2c(OC)n1 + Nc1ccc(C#CCN(C(=O)Cc2ncc(C(F)(F)F)cc2C(F)(F)F)c2ccc(F)cc2)nn1" value_units=% readout_number=63.5
molecule="O=C(Nc1ccc(O)c(NS(=O)(=O)c2ccc(F)cc2)c1)c1ccc(-c2ccccc2)cc1 + Nc1ccc(C#CCN(C(=O)Cc2ncc(C(F)(F)F)cc2C(F)(F)F)c2ccc(F)cc2)nn1" value_units=% readout_number=68.7
molecule="CC1COCCN1c1cc(C2(O)CC3CCC(C2)O3)c2cnn(-c3ccn[nH]3)c2n1 (stereo not given) + COC1C(OC(N)=O)C(O)C(Oc2ccc3c(O)c(NC(=O)c4ccc(O)c(CC=C(C)C)c4)c(=O)oc3c2C)OC1(C)C" value_units=% readout_number=17.9
molecule="CCc1cc2c(N3CCc4c(cc(Cn5ccnc5)cc4-c4cn(C)nc4C(F)(F)F)C3=O)ccnc2c(OC)n1 + COC1C(OC(N)=O)C(O)C(Oc2ccc3c(O)c(NC(=O)c4ccc(O)c(CC=C(C)C)c4)c(=O)oc3c2C)OC1(C)C" value_units=% readout_number=88.7
molecule="C=CC(=O)N1CCN(c2nc(=O)n(-c3c(C)ccnc3C(C)C)c3nc(-c4c(O)cccc4F)c(F)cc23)C(C)C1 (stereo not given) + COC1C(OC(N)=O)C(O)C(Oc2ccc3c(O)c(NC(=O)c4ccc(O)c(CC=C(C)C)c4)c(=O)oc3c2C)OC1(C)C" value_units=% readout_number=104

Reference source: PubChem BioAssay AID1963842
